# ASSAY_TARGET: Beta-3 adrenergic receptor (Homo sapiens)
# Sequence (P13945 whole entry): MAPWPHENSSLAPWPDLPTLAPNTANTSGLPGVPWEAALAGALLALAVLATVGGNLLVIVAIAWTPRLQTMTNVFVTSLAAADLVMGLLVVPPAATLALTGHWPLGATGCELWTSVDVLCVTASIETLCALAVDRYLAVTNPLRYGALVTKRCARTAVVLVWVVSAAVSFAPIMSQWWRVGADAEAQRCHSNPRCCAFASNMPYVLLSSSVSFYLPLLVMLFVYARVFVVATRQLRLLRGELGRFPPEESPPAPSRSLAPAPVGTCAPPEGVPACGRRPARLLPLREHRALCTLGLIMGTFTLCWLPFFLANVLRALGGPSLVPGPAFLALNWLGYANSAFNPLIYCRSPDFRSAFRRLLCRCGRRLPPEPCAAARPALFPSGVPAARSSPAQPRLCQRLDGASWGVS
# PROTOCOL_SUMMARY: Agonist activity against cloned human beta-3 adrenergic receptor
QUANTITY_KIND: EC50 (µM)

Examples with answers:
SMILES_DATA: CCCCCS(=O)(=O)Nc1ccc(CCNC[C@H](O)COc2ccc(O)cc2)cc1
QUANTITY_KIND: EC50
MEASUREMENT: 4

SMILES_DATA: CC(=O)Nc1ccc(CCNC[C@H](O)COc2ccc(O)cc2)cc1
QUANTITY_KIND: EC50
MEASUREMENT: 0.027

a: COc1ccc(CCCNC[C@H](O)COc2ccc(O)cc2)cc1
b: C[C@@H](CCc1ccc(O)cc1)NC[C@H](O)COc1ccc(O)cc1
c: Cc1ccc(S(=O)(=O)Nc2ccc(CCNC[C@H](O)COc3ccc(O)cc3)cc2)cc1
Ask | // ranking: key=EC50, reverse=True Labels, requested order.
Reply | a, b, c
(a: 0.6 µM, b: 0.012 µM, c: 0.0026 µM)
